Entry source: patent US10633374B2

# subject-of-test: recombinant uPAR (Homo sapiens, UniProt Q03405)
# Sequence (Q03405 23-305): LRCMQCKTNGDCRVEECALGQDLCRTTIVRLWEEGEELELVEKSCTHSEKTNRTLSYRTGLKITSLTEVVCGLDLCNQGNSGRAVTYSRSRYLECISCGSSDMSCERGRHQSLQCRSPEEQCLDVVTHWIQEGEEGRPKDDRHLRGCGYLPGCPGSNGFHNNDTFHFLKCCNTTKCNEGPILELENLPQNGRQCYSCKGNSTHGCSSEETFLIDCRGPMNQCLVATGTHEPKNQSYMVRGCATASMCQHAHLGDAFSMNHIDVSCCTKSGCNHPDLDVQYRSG
# experiment-notes: Fluorescence quenching titration of ARM-U2 derivatives with uPAR
# applied-conditions: fluorescence titration of 100 nM derivative with increasing uPAR; read-out: Kd, solution equilibrium dissociation constant with uPAR
pKd: −log10 of the molar value.
value-kind: pKd

a: O=C1c2ccccc2-c2onc3c(N4CCC[C@H](C(=O)NCCOCCOCCOCCOCCOCCOCCOCCNc5ccc([N+](=O)[O-])cc5[N+](=O)[O-])C4)cc(Nc4ccc(S(=O)(=O)O)cc4S(=O)(=O)O)c1c23 [6-ABT-2]
b: O=C(CCCC(=O)NCCOCCOCCOCCOCCOCCOCCOCCNc1ccc([N+](=O)[O-])cc1[N+](=O)[O-])NCCOCCOCCOCCOCCOCCOCCOCCNC(=O)[C@H]1CCCN(c2cc(Nc3ccc(S(=O)(=O)O)cc3S(=O)(=O)O)c3c4c(onc24)-c2ccccc2C3=O)C1 [6-ABT-3]
c: O=C(O)c1cccc(Nc2cc(N3CCC[C@H](C(=O)NCCCOCCOCCOCCCNc4ccc([N+](=O)[O-])cc4[N+](=O)[O-])C3)c3noc4c3c2C(=O)c2ccccc2-4)c1 [1-ABT-1]
Exercise: Put the items in order so that reported pKd rises from first to last. Hello, could you send the labels back in the order asked? Thank you.
Key: c, a, b
(c: 6.56, a: 7.18, b: 7.74)

---

# subject-of-test: uPAR (uPA binding site) (Homo sapiens)
# Construct: purchased R&D systems
# experiment-notes: Competitive ELISA uPAR binding assay (immobilized urokinase)
# applied-conditions: calculated from the ELISA IC50
value-kind: Ki (nM)
API: value field is a number in nM; no unit string.

Exercise: // fetch Ki; item: Nc1c(N2CCCC(C(=O)NCCCOCCOCCOCCCNc3ccc([N+](=O)[O-])cc3[N+](=O)[O-])C2)cc(Nc2ccc(S(=O)(=O)O)cc2S(=O)(=O)O)c2c1C(=O)c1ccccc1C2=O (stereo not shown) ; system: uPAR (uPA binding site) (Homo sapiens)
Key: 10

---

# subject-of-test: uPAR (uPA binding site) (Homo sapiens, UniProt Q03405)
# Sequence (Q03405 23-305): as the sequence (Q03405 23-305) above
# experiment-notes: Competitive ELISA uPAR binding assay (immobilized urokinase)
# applied-conditions: competition with immobilized uPA for uPAR
value-kind: IC50 (nM)
Provide only the numeric value, understood in nM.

Exercise: Answer briefly: IC50 recorded on uPAR (uPA binding site) (Homo sapiens, UniProt Q03405) for Nc1c(N2CCCC(C(=O)NCCCOCCOCCOCCCNc3ccc([N+](=O)[O-])cc3[N+](=O)[O-])C2)cc(Nc2ccc(S(=O)(=O)O)cc2S(=O)(=O)O)c2c1C(=O)c1ccccc1C2=O (stereo not shown) [compound 23]
Key: 63
